Source of measurements: patent US20220025021A1

biological target: HIV-1 pseudovirus X1193_c1 (HIV-1); assay: cell-based or functional assay
measured_metric: IC50 (neutralization in TZM.bl cells)

// known answers, use as guide
- binder: "MS-79 (antibody, V domains shown) VH: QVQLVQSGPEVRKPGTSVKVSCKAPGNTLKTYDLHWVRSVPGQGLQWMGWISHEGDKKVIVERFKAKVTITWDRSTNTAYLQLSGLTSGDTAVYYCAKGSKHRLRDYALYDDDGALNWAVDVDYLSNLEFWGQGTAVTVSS VL: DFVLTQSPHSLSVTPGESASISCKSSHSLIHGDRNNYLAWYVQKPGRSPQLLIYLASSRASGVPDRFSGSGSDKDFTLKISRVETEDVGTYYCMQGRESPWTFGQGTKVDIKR"
  measured_metric: "IC50 (neutralization in TZM.bl cells)"
  measurement: "0.109 µg/mL"
- binder: "MS-92 (antibody, V domains shown) VH: QVQLVQSGPEVRKPGTSVKVSCKAPGNTLKTYDLHWVRSVPGQGLEWMGWISHEGDKKVIVERFKAKVTIDRDRSTNTAYLQLSGLRSGDTAVYYCAKGSKHRLRDYALYDDDGALNWAVDVDYLSNLEFWGQGTAVTVSS VL: DIVLTQSPHSLSVTPGESASISCKSSHSLIHGDRNNYLAWYVQKPGRSPQLLIYLASSRASGVPDRFSGSGSDKDFTLKISRVETEDVGTYYCMQGRESPWTFGQGTKVDIKR"
  measured_metric: "IC50 (neutralization in TZM.bl cells)"
  measurement: "0.11 µg/mL"

Attention now turns to another entry.
The binder listed as MS-85 (antibody, V domains shown) VH: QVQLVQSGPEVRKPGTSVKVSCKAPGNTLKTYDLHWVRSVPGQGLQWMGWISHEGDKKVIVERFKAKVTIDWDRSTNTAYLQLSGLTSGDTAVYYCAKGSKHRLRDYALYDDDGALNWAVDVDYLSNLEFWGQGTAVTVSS VL: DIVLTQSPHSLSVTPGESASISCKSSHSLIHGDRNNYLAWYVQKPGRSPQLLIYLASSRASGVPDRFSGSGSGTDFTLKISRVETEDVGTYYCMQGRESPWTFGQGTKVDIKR shows IC50 (neutralization in TZM.bl cells) equal to 0.068 µg/mL
